target of assay: TaK1-TaB1 (TAK-1 enzyme) (Homo sapiens (Human), UniProt O43318)
Sequence (O43318 other isoform, or with tags, fused parts or gaps): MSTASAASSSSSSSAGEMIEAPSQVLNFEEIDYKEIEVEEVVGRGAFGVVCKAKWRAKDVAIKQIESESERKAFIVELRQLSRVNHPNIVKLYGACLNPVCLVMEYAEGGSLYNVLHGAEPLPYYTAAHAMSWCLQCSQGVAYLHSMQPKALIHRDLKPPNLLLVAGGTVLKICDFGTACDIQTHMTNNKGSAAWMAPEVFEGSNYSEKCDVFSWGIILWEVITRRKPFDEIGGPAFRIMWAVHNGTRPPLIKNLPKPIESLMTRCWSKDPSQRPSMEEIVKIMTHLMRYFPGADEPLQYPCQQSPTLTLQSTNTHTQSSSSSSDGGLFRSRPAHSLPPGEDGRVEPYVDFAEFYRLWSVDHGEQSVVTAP
procedure summary: TaK1-TaB1 inhibitor assay (IC50 of RAL analogues against TAK-1 enzyme)
Format: biochemical
test parameters: restated in Table 2 beside docking scores
measured metric: IC50 (µM)

[A] COc1cc(O)c2c(c1)/C=C/C[C@@H]1OC(C)(C)O[C@@H]1C(=O)/C=C\C[C@H](C)OC2=O
[B] COc1c(Br)c(O)c2c(c1Br)/C=C/C[C@H](O)[C@H](O)C(=O)/C=C\C[C@H](C)OC2=O
Lowest IC50? choose A or B Returns: label corresponding to the selected item. A
